# Test system: HeLa Kyoto
# experimentDescription: melting temperature (median over replicates), in situ; higher = more thermally stable
# measurementSetup: cell cycle stage: mitosis
readoutLabel: melting temperature (°C)
State the answer as a number, implicitly in °C.

Below are worked cases with known answers.
sequenceCode	result
MRLVILDNYDLASEWAAKYICNRIIQFKPGQDRYFTLGLPTGSTPLGCYKKLIEYHKNGHLSFKYVKTFNMDEYVGLPRNHPESYHSYMWNNFFKHIDIDPNNAHILDGNAADLQAECDAFENKIKEAGGIDLFVGGIGPDGHIAFNEPGSSLVSRTRLKTLAMDTILANAKYFDGDLSKVPTMALTVGVGTVMDAREVMILITGAHKAFALYKAIEEGVNHMWTVSAFQQHPRTIFVCDEDATLELRVKTVKYFKGLMHVHNKLVDPLFSMKDGN [GNPDA2]	58.3
MVCGGFACSKNCLCALNLLYTLVSLLLIGIAAWGIGFGLISSLRVVGVVIAVGIFLFLIALVGLIGAVKHHQVLLFFYMIILLLVFIVQFSVSCACLALNQEQQGQLLEVGWNNTASARNDIQRNLNCCGFRSVNPNDTCLASCVKSDHSCSPCAPIIGEYAGEVLRFVGGIGLFFSFTEILGVWLTYRYRNQKDPRANPSAFL [TSPAN13]	57.6

melting temperature recorded for this sequence, MAEVKVKVQPPDADPVEIENRIIELCHQFPHGITDQVIQNEMPHIEAQQRAVAINRLLSMGQLDLLRSNTGLLYRIKDSQNAGKMKGSDNQEKLVYQIIEDAGNKGIWSRDIRYKSNLPLTEINKILKNLESKKLIKAVKSVAASKKKVYMLYNLQPDRSVTGGAWYSDQDFESEFVEVLNQQCFKFLQSKAETARESKQNPMIQRNSSFASSHEVWKYICELGISKVELSMEDIETILNTLIYDGKVEMTIIAAKEGTVGSVDGHMKLYRAVNPIIPPTGLVRAPCGLCPVFDDCHEGGEISPSNCIYMTEWLEF [POLR3F] , is 52.7

---

# Test system: HeLa Kyoto
# experimentDescription: solubility in G1/S (NP-40 vs SDS abundance) (log2 ratio); higher = more soluble
# measurementSetup: cell cycle stage: G1/S
readoutLabel: solubility in G1/S (log2)
Write no unit; give the number alone.

Below are worked cases with known answers.
sequenceCode	solubility in G1/S (log2)
MPEAPPLLLAAVLLGLVLLVVLLLLLRHWGWGLCLIGWNEFILQPIHNLLMGDTKEQRILNHVLQHAEPGNAQSVLEAIDTYCEQKEWAMNVGDKKGKIVDAVIQEHQPSVLLELGAYCGYSAVRMARLLSPGARLITIEINPDCAAITQRMVDFAGVKDKVTLVVGASQDIIPQLKKKYDVDTLDMVFLDHWKDRYLPDTLLLEECGLLRKGTVLLADNVICPGAPDFLAHVRGSSCFECTHYQSFLEYREVVDGLEKAIYKGPGSEAGP [COMT]	-0.0917
MATGGYRTSSGLGGSTTDFLEEWKAKREKMRAKQNPPGPAPPGGGSSDAAGKPPAGALGTPAAAAANELNNNLPGGAPAAPAVPGPGGVNCAVGSAMLTRAAPGPRRSEDEPPAASASAAPPPQRDEEEPDGVPEKGKSSGPSARKGKGQIEKRKLREKRRSTGVVNIPAAECLDEYEDDEAGQKERKREDAITQQNTIQNEAVNLLDPGSSYLLQEPPRTVSGRYKSTTSVSEEDVSSRYSRTDRSGFPRYNRDANVSGTLVSSSTLEKKIEDLEKEVVRERQENLRLVRLMQDKEEMIGKLKEEIDLLNRDLDDIEDENEQLKQENKTLLKVVGQLTR [PAWR]	0.552

Record MMDPCSVGVQLRTTNECHKTYYTRHTGFKTLQELSSNDMLLLQLRTGMTLSGNNTICFHHVKIYIDRFEDLQKSCCDPFNIHKKLAKKNLHVIDLDDATFLSAKFGRQLVPGWKLCPKCTQIINGSVDVDTEDRQKRKPESDGRTAKALRSLQFTNPGRQTEFAPETGKREKRRLTKNATAGSDRQVIPAKSKVYDSQGLLIFSGMDLCDCLDEDCLGCFYACPACGSTKCGAECRCDRKWLYEQIEIEGGEIIHNKHAG [ARL14EP] / HeLa Kyoto, solubility in G1/S (log2) recorded as -0.0781

The origin of these recorded values is the supplement of paper PMC5998384.
